- system-under-test: ACE from rabbit lung (Oryctolagus cuniculus)
- Construct: ACE from rabbit lung (EC3.4.15.1); purchased Sigma-Aldrich; host or cells: rabbit lung tissue
- Sequence (P12822 34-1310): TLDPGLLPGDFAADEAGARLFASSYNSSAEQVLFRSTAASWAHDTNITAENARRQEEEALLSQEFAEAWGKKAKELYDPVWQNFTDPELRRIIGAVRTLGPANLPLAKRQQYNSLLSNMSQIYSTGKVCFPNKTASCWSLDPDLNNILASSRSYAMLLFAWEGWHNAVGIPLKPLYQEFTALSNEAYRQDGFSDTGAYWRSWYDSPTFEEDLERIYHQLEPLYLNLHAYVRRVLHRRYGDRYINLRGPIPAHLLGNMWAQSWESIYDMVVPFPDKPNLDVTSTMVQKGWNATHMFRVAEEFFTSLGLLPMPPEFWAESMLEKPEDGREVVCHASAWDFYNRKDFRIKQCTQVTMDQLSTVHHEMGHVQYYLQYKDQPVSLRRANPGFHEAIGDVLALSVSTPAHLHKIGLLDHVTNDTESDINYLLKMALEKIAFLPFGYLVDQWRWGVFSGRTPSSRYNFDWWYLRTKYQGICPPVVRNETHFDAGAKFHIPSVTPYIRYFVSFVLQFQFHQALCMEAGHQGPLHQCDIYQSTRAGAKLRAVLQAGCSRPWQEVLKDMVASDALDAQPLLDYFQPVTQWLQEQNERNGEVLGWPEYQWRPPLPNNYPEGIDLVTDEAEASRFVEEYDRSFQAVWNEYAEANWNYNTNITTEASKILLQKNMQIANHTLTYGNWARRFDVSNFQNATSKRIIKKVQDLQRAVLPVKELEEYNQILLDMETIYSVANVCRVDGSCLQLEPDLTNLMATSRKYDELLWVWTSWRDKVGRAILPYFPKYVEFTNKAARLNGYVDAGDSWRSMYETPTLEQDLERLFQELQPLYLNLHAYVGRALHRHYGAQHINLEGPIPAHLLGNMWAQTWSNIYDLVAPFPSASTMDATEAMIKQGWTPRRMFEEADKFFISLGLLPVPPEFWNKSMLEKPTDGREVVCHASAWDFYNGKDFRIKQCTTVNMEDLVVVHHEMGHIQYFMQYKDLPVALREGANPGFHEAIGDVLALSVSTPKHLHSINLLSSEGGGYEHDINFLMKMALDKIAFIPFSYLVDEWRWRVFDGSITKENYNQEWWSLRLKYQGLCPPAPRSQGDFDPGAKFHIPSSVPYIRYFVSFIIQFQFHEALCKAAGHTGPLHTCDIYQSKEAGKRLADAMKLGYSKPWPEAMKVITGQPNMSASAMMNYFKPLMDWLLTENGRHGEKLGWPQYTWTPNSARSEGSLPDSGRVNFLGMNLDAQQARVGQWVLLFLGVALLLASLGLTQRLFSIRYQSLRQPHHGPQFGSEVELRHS
- protocol-notes: ACE-inhibitory activity assay (HHL substrate, hippuric acid by RP-HPLC)
- Assay type: biochemical
- measurement-conditions: synthetic peptides; HHL 5 mM, pH 8.3, 37 °C, 45 min; mean ± SD; SD; read-out: IC50 of ACE inhibition
pIC50: −log10 of the molar value. Where no end group is shown, it is not given here.
readout: pIC50

// query Give the reported value of pIC50 for this record: RLVPVPY [RLVPVPY]
// result 5.04

// query Provide one value: measured pIC50 of SFYYGK [SFYYGK]
// result 5.19
